Molecular target: von Hippel-Lindau disease tumor suppressor/Vascular endothelial growth factor receptor 2 (Homo sapiens, UniProt P35968+P40337)
Sequence (P35968 20-1356 limits assumed): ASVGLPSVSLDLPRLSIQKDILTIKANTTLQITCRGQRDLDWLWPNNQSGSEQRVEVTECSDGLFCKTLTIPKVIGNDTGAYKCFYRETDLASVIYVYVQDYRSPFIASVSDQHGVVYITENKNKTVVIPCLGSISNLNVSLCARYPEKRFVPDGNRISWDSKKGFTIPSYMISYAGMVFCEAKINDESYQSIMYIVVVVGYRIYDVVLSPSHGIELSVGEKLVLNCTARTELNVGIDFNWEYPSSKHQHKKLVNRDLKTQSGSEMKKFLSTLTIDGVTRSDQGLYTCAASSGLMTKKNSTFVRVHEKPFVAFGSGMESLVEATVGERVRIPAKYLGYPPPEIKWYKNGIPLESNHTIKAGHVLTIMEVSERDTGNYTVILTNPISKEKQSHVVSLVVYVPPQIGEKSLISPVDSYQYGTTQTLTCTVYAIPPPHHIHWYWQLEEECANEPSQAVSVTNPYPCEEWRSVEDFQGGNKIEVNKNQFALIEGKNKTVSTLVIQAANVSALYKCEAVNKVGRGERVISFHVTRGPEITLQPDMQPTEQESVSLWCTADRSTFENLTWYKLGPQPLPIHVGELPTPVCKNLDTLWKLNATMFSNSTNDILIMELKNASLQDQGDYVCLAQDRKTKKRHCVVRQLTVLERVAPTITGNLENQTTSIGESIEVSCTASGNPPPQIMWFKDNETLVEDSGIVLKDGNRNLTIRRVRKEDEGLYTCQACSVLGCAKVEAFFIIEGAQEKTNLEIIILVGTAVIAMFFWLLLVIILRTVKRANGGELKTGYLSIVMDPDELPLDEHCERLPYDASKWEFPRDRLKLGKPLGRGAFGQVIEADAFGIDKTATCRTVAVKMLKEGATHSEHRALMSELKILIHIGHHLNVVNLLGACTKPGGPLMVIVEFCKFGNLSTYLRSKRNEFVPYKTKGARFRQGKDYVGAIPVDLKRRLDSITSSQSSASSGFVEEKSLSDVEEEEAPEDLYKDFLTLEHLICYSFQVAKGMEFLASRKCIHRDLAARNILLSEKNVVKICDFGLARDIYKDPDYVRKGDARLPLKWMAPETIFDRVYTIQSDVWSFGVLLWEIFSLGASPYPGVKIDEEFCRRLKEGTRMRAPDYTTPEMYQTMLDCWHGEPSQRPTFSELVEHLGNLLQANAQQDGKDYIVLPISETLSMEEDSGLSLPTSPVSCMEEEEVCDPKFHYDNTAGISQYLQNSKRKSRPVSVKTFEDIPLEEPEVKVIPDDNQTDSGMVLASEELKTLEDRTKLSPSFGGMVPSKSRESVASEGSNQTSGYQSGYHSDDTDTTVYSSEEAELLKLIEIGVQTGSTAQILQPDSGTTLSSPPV
Sequence (P40337 whole entry partner): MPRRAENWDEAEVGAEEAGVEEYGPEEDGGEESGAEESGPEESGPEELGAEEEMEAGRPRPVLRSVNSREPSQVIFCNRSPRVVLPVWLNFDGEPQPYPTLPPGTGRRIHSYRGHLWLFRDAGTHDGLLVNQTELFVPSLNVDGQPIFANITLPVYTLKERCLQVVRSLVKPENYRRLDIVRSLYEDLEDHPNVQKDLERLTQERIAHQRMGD
Assay: PROTAC activity at VHL/VEGFR2 in human HGC-27 cells assessed as reduction in VEGFR2 protein level by measuring maximal efficacy incubated for 24 hrs by Western blot analysis relative to control
Type: cell-based
readout: Emax (%)

{"molecule": "Cc1ccc(NC(=O)Cn2cc(-c3ccc4c(NC(=O)c5ccc(NC(=O)CCCCC(=O)N6CCN(CCCCC(=O)N[C@H](C(=O)N7C[C@H](O)C[C@H]7C(=O)NCc7ccc(-c8scnc8C)cc7)C(C)(C)C)CC6)cc5)n[nH]c4c3)cn2)cc1C(F)(F)F", "readout": "Emax", "numericReadout": 38.5}

a = Cc1ccc(NC(=O)Cn2cc(-c3ccc4c(NC(=O)c5ccc(NC(=O)CCCCC(=O)N6CCN(CCCCCCC(=O)N[C@H](C(=O)N7C[C@H](O)C[C@H]7C(=O)NCc7ccc(-c8scnc8C)cc7)C(C)(C)C)CC6)cc5)n[nH]c4c3)cn2)cc1C(F)(F)F
b = Cc1ccc(NC(=O)Cn2cc(-c3ccc4c(NC(=O)c5ccc(NC(=O)CCCCCCCC(=O)N[C@H](C(=O)N6C[C@H](O)C[C@H]6C(=O)NCc6ccc(-c7scnc7C)cc6)C(C)(C)C)cc5)n[nH]c4c3)cn2)cc1C(F)(F)F
*Q* Of a and b , which shows the smaller Emax value? When you have decided, please share the label of that item.
*A* b

====

Test: Cytotoxicity against HEK293T cells assessed as inhibition of cell growth incubated for 72 hrs by MTT assay
Type: toxicity, cell-based, HEK-293T
Conditions: human
Below is a list of entries, each paired with its recorded IC50 at 72 h value.
Provide only the numeric value, understood in µM.

A selection of reference data follows.
{"molecule": "Cc1ccc(NC(=O)Cn2cc(-c3ccc4c(NC(=O)c5ccc(N6CCNCC6)cc5)n[nH]c4c3)cn2)cc1C(F)(F)F", "numericReadout": 3.57}
{"molecule": "Cc1ccc(NC(=O)Cn2cc(-c3ccc4c(NC(=O)c5ccc(N)cc5)n[nH]c4c3)cn2)cc1C(F)(F)F", "numericReadout": 0.025}
{"molecule": "Cc1ccc(NC(=O)Cn2cc(-c3ccc4c(NC(=O)c5ccc(NC(=O)CCC(=O)N[C@H](C(=O)N6C[C@H](O)C[C@H]6C(=O)NCc6ccc(-c7scnc7C)cc6)C(C)(C)C)cc5)n[nH]c4c3)cn2)cc1C(F)(F)F", "numericReadout": 48.2}

In the following, a different compound is considered.
*Q* Retrieve IC50 at 72 h measured for Cc1ccc(NC(=O)Cn2cc(-c3ccc4c(NC(=O)c5ccc(NC(=O)CCCCCCC(=O)N[C@H](C(=O)N6C[C@H](O)C[C@H]6C(=O)NCc6ccc(-c7scnc7C)cc6)C(C)(C)C)cc5)n[nH]c4c3)cn2)cc1C(F)(F)F and print it.
*A* 17.9

====

Assay: Cytotoxicity against HEK293T cells assessed as inhibition of cell growth incubated for 72 hrs by MTT assay
Format: toxicity, cell-based, HEK-293T
Details: human
readout: IC50 at 72 h (µM)
I only need the number, in µM, no unit after it.

{"molecule": "Cc1ccc(NC(=O)Cn2cc(-c3ccc4c(NC(=O)c5ccc(NC(=O)CCCCC(=O)N6CCN(CCCCC(=O)N[C@H](C(=O)N7C[C@H](O)C[C@H]7C(=O)NCc7ccc(-c8scnc8C)cc7)C(C)(C)C)CC6)cc5)n[nH]c4c3)cn2)cc1C(F)(F)F", "readout": "IC50 at 72 h", "numericReadout": 38.7}
{"molecule": "Cc1ccc(NC(=O)Cn2cc(-c3ccc4c(NC(=O)c5ccc(NC(=O)CCCCC(=O)N6CCN(CCCCCCCC(=O)N[C@H](C(=O)N7C[C@H](O)C[C@H]7C(=O)NCc7ccc(-c8scnc8C)cc7)C(C)(C)C)CC6)cc5)n[nH]c4c3)cn2)cc1C(F)(F)F", "readout": "IC50 at 72 h", "numericReadout": 31.9}
{"molecule": "Cc1ccc(NC(=O)Cn2cc(-c3ccc4c(NC(=O)c5ccc(N6CCN(CCCCCCC(=O)N[C@H](C(=O)N7C[C@H](O)C[C@H]7C(=O)NCc7ccc(-c8scnc8C)cc7)C(C)(C)C)CC6)cc5)n[nH]c4c3)cn2)cc1C(F)(F)F", "readout": "IC50 at 72 h", "numericReadout": 38.6}
{"molecule": "Cc1ccc(NC(=O)Cn2cc(-c3ccc4c(NC(=O)c5ccc(N)cc5)nn(C(=O)CCCCCCCCC(=O)N[C@H](C(=O)N5C[C@H](O)C[C@H]5C(=O)NCc5ccc(-c6scnc6C)cc5)C(C)(C)C)c4c3)cn2)cc1C(F)(F)F", "readout": "IC50 at 72 h", "numericReadout": 44.9}
{"molecule": "Cc1ccc(NC(=O)Cn2cc(-c3ccc4c(NC(=O)c5ccc(NC(=O)CCCCC(=O)N6CCN(CCCC(=O)N[C@H](C(=O)N7C[C@H](O)C[C@H]7C(=O)NCc7ccc(-c8scnc8C)cc7)C(C)(C)C)CC6)cc5)n[nH]c4c3)cn2)cc1C(F)(F)F", "readout": "IC50 at 72 h", "numericReadout": 38.2}

*Q* Give recorded IC50 at 72 h. Cc1ccc(NC(=O)Cn2cc(-c3ccc4c(NC(=O)c5ccc(N6CCN(CCCCCC(=O)N[C@H](C(=O)N7C[C@H](O)C[C@H]7C(=O)NCc7ccc(-c8scnc8C)cc7)C(C)(C)C)CC6)cc5)n[nH]c4c3)cn2)cc1C(F)(F)F
*A* 43.8

*Q* Identify measured IC50 at 72 h corresponding to Cc1ccc(NC(=O)Cn2cc(-c3ccc4c(NC(=O)c5ccc(N)cc5)nn(C(=O)CCCCCCCCCCC(=O)N[C@H](C(=O)N5C[C@H](O)C[C@H]5C(=O)NCc5ccc(-c6scnc6C)cc5)C(C)(C)C)c4c3)cn2)cc1C(F)(F)F
*A* 25.9

*Q* Entry CNC(=O)c1cc(Oc2ccc(NC(=O)Nc3ccc(Cl)c(C(F)(F)F)c3)cc2)ccn1 [SORAFENIB] needs its IC50 at 72 h filled in; supply it.
*A* 6.38

*Q* Look up IC50 at 72 h of Cc1ccc(NC(=O)Cn2cc(-c3ccc4c(NC(=O)c5ccc(NC(=O)CCCCCCCCC(=O)N[C@H](C(=O)N6C[C@H](O)C[C@H]6C(=O)NCc6ccc(-c7scnc7C)cc6)C(C)(C)C)cc5)n[nH]c4c3)cn2)cc1C(F)(F)F and report it.
*A* 14.5
